For each of the compounds below, state its inhibition at 0.5 µM.
Biological target: Des1 (Homo sapiens)
Sequence (O15121 1-323): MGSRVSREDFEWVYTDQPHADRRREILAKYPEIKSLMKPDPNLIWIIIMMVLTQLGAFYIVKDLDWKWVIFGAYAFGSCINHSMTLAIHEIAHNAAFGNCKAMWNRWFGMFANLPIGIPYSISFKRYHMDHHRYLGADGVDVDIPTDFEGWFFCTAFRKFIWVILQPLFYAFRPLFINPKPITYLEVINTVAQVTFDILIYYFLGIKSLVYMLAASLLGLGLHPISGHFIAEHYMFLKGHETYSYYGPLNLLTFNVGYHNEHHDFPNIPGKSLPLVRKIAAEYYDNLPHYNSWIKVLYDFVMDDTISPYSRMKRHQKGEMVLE
Assay: Jurkat T cell measurement of conversion of dihydroceramide to ceramide (Des1 activity, LC-MS/MS of NBD-C6-ceramide)
Type: cell-based
Parameters: endogenous in cells; host or cells: Jurkat clone E6-1
Settings: 0.5 uM compound; Jurkat clone E6-1 cells, 10 μM NBD-C6-dihydroceramide, 3 hours at 37° C.; read-out: Des1 % Inhib (0.5 uM)

Here are 4 compounds together with their reported answers.
O=C(Nc1ccc(O)cn1)OC1CCN(c2ccccn2)CC1 [Example 59] :: 93.2%
O=C(Nc1ccc(O)cn1)NC1CCCN(c2ccc(F)cc2)C1 (stereo not shown) [Example 47] :: 51.8%
O=C(Nc1ccc(O)cn1)N1CCCN(c2ccc(F)c(F)c2)CC1 [Example 87] :: 92.7%
CCCCCCOC(=O)Nc1ccc(O)cn1 [Example 41, Hexyl N-(5-hydroxypyridin-2-yl)carbamate] :: 95.1%

Batch request: inhibition at 0.5 µM for each of the following compounds.
1. O=C(Nc1ccc(O)cn1)NC1CCN(c2ccc(F)cc2)CC1 [Example 51]
2. O=C(Nc1ccc(O)cn1)N1CCC(c2cccc(Cl)c2)CC1 [Example 7]
3. O=C(Nc1ccc(O)cn1)N1CCN(c2nc(F)c(F)cc2F)CC1 [Example 83]
4. Cn1ncc2c(N3CCN(C(=O)Nc4ccc(O)cn4)CC3)cccc21 [Example 81]
5. O=C(Nc1ccc(O)cn1)N1CCN(c2ccc(F)cc2F)CC1 [Example 13]
6. Cn1ncc2ccc(N3CCN(C(=O)Nc4ccc(O)cn4)CC3)cc21 [Example 82]

91.5%
94%
94.9%
77.9%
93%
78.4%

----------
Target: Des1 (Homo sapiens, UniProt O15121)
Assay: Jurkat T cell measurement of conversion of dihydroceramide to ceramide (Des1 activity, LC-MS/MS of NBD-C6-ceramide)
Assay type: cell-based
Set-up: endogenous in cells; host or cells: Jurkat clone E6-1
Conditions: 0.5 uM compound; Jurkat clone E6-1 cells, 10 μM NBD-C6-dihydroceramide, 3 hours at 37° C.; read-out: Des1 % Inhib (0.5 uM)
recorded-metric: inhibition at 0.5 µM (%)
One number for each entry, in %.

Here are 4 compounds together with their reported answers.
O=S(=O)(Nc1ccc(O)cn1)C1CCN(c2ccc(Cl)cn2)CC1 :: 85.3
COc1ccc(C2CCN(C(=O)Nc3ccc(O)cn3)CC2)cc1 :: 81.8
O=C(Nc1ccc(O)cn1)N1CCC(c2ccc(F)cc2)CC1 :: 91.7
O=C(Nc1ccc(O)cn1)NC1CCCN(c2ccc(Cl)cc2)C1 (stereo not shown) :: 39.8

Batch request: inhibition at 0.5 µM for each of the following compounds.
1. O=C(Nc1ccc(O)cn1)N1CCN(c2cc(F)ccn2)CC1
2. N#Cc1ccc(N2CCN(C(=O)Nc3ccc(O)cn3)CC2)nc1

1: 93.4; 2: 85.4

Batch request: inhibition at 0.5 µM for each of the following compounds.
1. O=C(Nc1ccc(O)cn1)N1CCCCCC1
2. O=C(Nc1ccc(O)cn1)N1CCCCC1
3. O=C(Nc1ccc(O)cn1)OC1CCN(c2ccccc2)CC1

1. 38.5
2. 15
3. 95

Consider the compound `O=C(Nc1ccc(O)cn1)OC1CCN(c2ccc(F)cc2)CC1` . State its measured inhibition at 0.5 µM.
94.8

----------
Target: Des1 (Homo sapiens, UniProt O15121)
Test: Jurkat T cell measurement of conversion of dihydroceramide to ceramide (Des1 activity, LC-MS/MS of NBD-C6-ceramide)
Format: cell-based
Parameters: endogenous in cells; host or cells: Jurkat clone E6-1
Conditions: Jurkat clone E6-1 cells, 10 μM NBD-C6-dihydroceramide, 3 hours at 37° C.; read-out: Des1 IC50
For each of the compounds below, state its pIC50.
One number for each entry, as −log10 of the molar value.

Batch request: pIC50 for each of the following compounds.
1. O=C(Nc1ccc(O)cn1)OC1CCN(c2ccc(Cl)cc2)CC1 [Example 55]
2. O=C(Nc1ccc(O)cn1)N1CCC(Cc2ccccc2)CC1 [Example 8]
3. O=C(Nc1ccc(O)cn1)N1CCC(c2ccc(Cl)cc2)CC1 [Example 4]
4. O=C(Nc1ccc(O)cn1)O[C@H]1CC[C@H](c2ccccc2)CC1 [Example 43]
5. CC(C)CCCCCS(=O)(=O)Nc1ccc(O)cn1 [Example 70]
6. O=C(Nc1ccc(O)cn1)N1CCN(c2ccc(C(F)(F)F)cc2)CC1 [Example 14]
7. O=C(Nc1ccc(O)cn1)N1CCN(Cc2ccc(F)c(F)c2)CC1 [Example 77]
8. O=C(Nc1ccc(O)cn1)N1CCCN(c2ccc(F)cn2)CC1 [Example 84]

8.70
7.89
7.64
8.22
6.96
8.52
7.46
7.00

Batch request: pIC50 for each of the following compounds.
1. O=C(Nc1ccc(O)cn1)N1CCCN(c2ccc(F)c(F)c2)CC1 [Example 87]
2. N#Cc1ccc(N2CCN(C(=O)Nc3ccc(O)cn3)CC2)cc1 [Example 27]

1. 7.68
2. 7.96

Batch request: pIC50 for each of the following compounds.
1. O=C(Nc1ccc(O)cn1)OC1CCN(c2ccc(C(F)(F)F)cn2)CC1 [Example 60]
2. O=C(Nc1ccc(O)cn1)N1CCN(c2ccc(C(F)(F)F)cn2)CC1 [Example 18]
3. COc1ccc(N2CCN(C(=O)Nc3ccc(O)cn3)CC2)cc1 [Example 15]
4. CCCCCCNC(=O)Nc1ccc(O)cn1 [Example 40, 1-Hexyl-3-(5-hydroxypyridin-2-yl)urea]

1. 8.52
2. 8.40
3. 6.96
4. 7.89

Batch request: pIC50 for each of the following compounds.
1. O=C(Nc1ccc(O)cn1)OC1CCN(c2ccccn2)CC1 [Example 59]
2. O=C(Nc1ccc(O)cn1)N1CCN(c2ccccc2F)CC1 [Example 12]
3. O=C(Nc1ccc(O)cn1)N1CCN(c2cccc(C(F)(F)F)n2)CC1 [Example 36]

1. 7.37
2. 7.27
3. 7.64

----------
For each of the compounds below, state its log10 IC50.
Target: UniProt O15121
Test: Jurkat T cell measurement of conversion of dihydroceramide to ceramide (Des1 activity, LC-MS/MS of NBD-C6-ceramide)
Format: cell-based
Set-up: endogenous in cells; host or cells: Jurkat clone E6-1
Conditions: Jurkat clone E6-1 cells, 10 μM NBD-C6-dihydroceramide, 3 hours at 37° C.; read-out: Des1 IC50
Log10 applied to IC50; unit prior to transform: nM.

Batch request: log10 IC50 for each of the following compounds.
1. O=C(Nc1ccc(O)cn1)N1CCN(c2nc(F)c(F)cc2F)CC1
2. O=C(Nc1ccc(O)cn1)N1CCN(c2ccc(OC(F)(F)F)cn2)CC1
3. CC(C)(C)c1ccc(S(=O)(=O)Nc2ccc(O)cn2)cc1
4. O=C(Nc1ccc(O)cn1)OC1CCN(c2ccc(F)cn2)CC1
5. O=C(Oc1ccc(O)cn1)N1CCN(c2ccc(C(F)(F)F)cn2)CC1
6. O=S(=O)(Nc1ccc(O)cn1)C1CCN(c2ccc(Cl)cc2)CC1
7. O=C(Nc1ccc(O)cn1)N1CCC(c2cccc(Cl)c2)CC1

[1.81, 0.85, 2.49, 1.45, 1.40, 1.93, 1.41]

----------
Target: Des1 (Homo sapiens, UniProt O15121)
Test: Jurkat T cell measurement of conversion of dihydroceramide to ceramide (Des1 activity, LC-MS/MS of NBD-C6-ceramide)
Assay type: cell-based
Design: endogenous in cells; host or cells: Jurkat clone E6-1
Settings: 0.5 uM compound; Jurkat clone E6-1 cells, 10 μM NBD-C6-dihydroceramide, 3 hours at 37° C.; read-out: Des1 % Inhib (0.5 uM)
For each of the molecules below, state its inhibition at 0.5 µM.
Numbers only, in %.

Here are 2 molecules together with their reported answers.
O=C(Nc1ccc(O)cn1)N1CCN(Cc2ccc(F)cc2)CC1 :: 91.5
O=C(Nc1ccc(O)cn1)N1CCN(c2ccccn2)CC1 :: 76.9

Enter measured inhibition at 0.5 µM, system Des1 (Homo sapiens, UniProt O15121), for the molecule shown: `COc1ccc(N2CCN(C(=O)Nc3ccc(O)cn3)CC2)cc1`
81.8

----------
Target: Des1 (Homo sapiens, UniProt O15121)
Assay: Jurkat T cell measurement of conversion of dihydroceramide to ceramide (Des1 activity, LC-MS/MS of NBD-C6-ceramide)
Type: cell-based
Set-up: endogenous in cells; host or cells: Jurkat clone E6-1
Details: 0.5 uM compound; Jurkat clone E6-1 cells, 10 μM NBD-C6-dihydroceramide, 3 hours at 37° C.; read-out: Des1 % Inhib (0.5 uM)
recorded-metric: inhibition at 0.5 µM
Please answer using a numeric value trailed by its unit.

Here are 4 compounds together with their reported answers.
CC(C)C1CCN(C(=O)Nc2ccc(O)cn2)CC1 [Example 9] :: 93.8%
O=C(Nc1ccc(O)cn1)N1CCN(Cc2ccccc2)CC1 [Example 37] :: 80.7%
O=C(Nc1ccc(O)cn1)N1CCN(c2ccc(OC(F)(F)F)cn2)CC1 [Example 46] :: 94.5%
O=C(Nc1ccc(O)cn1)N1CCN(c2cccc(F)n2)CC1 [Example 35] :: 91.3%

Batch request: inhibition at 0.5 µM for each of the following compounds.
1. O=C(Nc1ccc(O)cn1)OC1CCN(c2ccc(C(F)(F)F)cc2)CC1 [Example 57]
2. O=C(Nc1ccc(O)cn1)N1CCN(c2ncc(F)cc2F)CC1 [Example 79]
3. O=C(Nc1ccc(O)cn1)OC1CCN(c2ccc(Cl)cc2)CC1 [Example 55]
4. O=C(NCc1ccc(Cl)cc1)Nc1ccc(O)cn1 [Example 76]
5. O=C(Nc1ccc(O)cn1)N1CCN(c2ccccc2F)CC1 [Example 12]

1. 95.5%
2. 93.8%
3. 96.5%
4. 75.1%
5. 90.5%
